Numbers sourced from ChEMBL document CHEMBL5357031.

Test system: MDA-MB-231
Observable: pIC50
Expect pIC50 as a plain number equal to -log10 of the molar concentration.

-- ask Quick check: pIC50 on MDA-MB-231, item COc1cc(OC)c2c(c1)O[C@@]1(c3ccc(OCCCCCN4CCN(C)CC4)cc3)[C@H](c3ccccc3)C[C@@H](O)[C@@]21O (racemic; form 1) ?
-- reply 6.96

====

Assay method text: Solubility of compound in PBS at pH 7.4 at 2 mg measured for 24 hrs by HPLC-UV analysis
Type: physicochemical
Observable: solubility at 24 h (µg/mL)

(1) COc1cc(OC)c2c(c1)O[C@@]1(c3ccc(O)cc3)[C@H](c3ccccc3)C[C@@H](O)[C@@]21O (racemic)
(2) COc1cc(OC)c2c(c1)O[C@@]1(c3ccc(OCCCCCN4CCN(C)CC4)cc3)[C@H](c3ccccc3)C[C@@H](O)[C@@]21O (racemic; form 1)
-- ask Could you determine which record has the numerically smaller solubility at 24 h? Candidates: 1 and 2 In your reply, give the label of the chosen option.
-- reply 1
